The origin of these recorded values is patent US6677473B1.

- MEASURED_TARGET: Human recombinant PAI-1 (Homo sapiens, UniProt P05121)
- Sequence (P05121 24-402): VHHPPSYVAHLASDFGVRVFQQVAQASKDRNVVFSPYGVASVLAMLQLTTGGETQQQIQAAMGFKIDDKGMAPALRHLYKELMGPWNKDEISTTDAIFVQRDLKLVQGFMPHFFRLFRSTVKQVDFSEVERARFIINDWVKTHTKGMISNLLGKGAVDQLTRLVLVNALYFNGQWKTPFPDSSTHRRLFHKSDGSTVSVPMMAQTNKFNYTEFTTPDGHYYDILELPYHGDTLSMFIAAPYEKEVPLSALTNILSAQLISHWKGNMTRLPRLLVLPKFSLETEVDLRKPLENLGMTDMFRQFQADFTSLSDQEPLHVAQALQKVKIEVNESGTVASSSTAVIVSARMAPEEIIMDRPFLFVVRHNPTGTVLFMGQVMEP
- PROCEDURE_DETAILS: Chromogenic assay for plasminogen activator inhibitor type-1 (PAI-1) antagonism (tPA / glu-plasminogen / Spectrozyme PL, OD405)
- TEST_CONDITIONS: determined by comparison with control reactions; assay variant (#1-#4) not given; read-out: IC50 for PAI antagonist activity
- Protocol: PAI-1 antagonist assays were performed in a buffer containing Tris, 0.05 mol/L, pH 7.4, 100 mmol/L NaCl, 1 mmol/L EDTA, and 0.01% Tween 80. […] The microtiter assay plate was then placed into a Molecular Devices Thermomax or Spectromax Plate Reader, agitated to assure thorough mixing of reagents, and incubated at 37° C. The OD405 of each reaction mixture is measured every minute for 1 hour. […]
pIC50: −log10 of the molar value.

[
  {
    "COMPOUND": "O=C(c1ccccc1)c1cc(I)c(O)c(I)c1",
    "pIC50": "> 4.00"
  },
  {
    "COMPOUND": "O=C(C(=O)c1cc(I)c(O)c(I)c1)c1cc(I)c(O)c(I)c1",
    "pIC50": "> 4.30"
  },
  {
    "COMPOUND": "O=C(c1cc(I)c(O)c(I)c1)c1cc(I)c(O)c(I)c1 [bis(4-hydroxy-3,5-diiodophenyl)methanone]",
    "pIC50": "> 4.30"
  },
  {
    "COMPOUND": "Cc1ccccc1COc1c(I)cc(C(=O)O)cc1I",
    "pIC50": "> 4.30"
  },
  {
    "COMPOUND": "O=C(O)CCc1cc(I)c(OCc2ccc(I)cc2)c(I)c1",
    "pIC50": "> 5.00"
  },
  {
    "COMPOUND": "O=C(O)c1cc(I)c(OCc2c(F)cccc2F)c(I)c1",
    "pIC50": "> 4.00"
  },
  {
    "COMPOUND": "O=C(O)COc1c(I)cc(C(=O)c2cc(I)c(O)c(I)c2)cc1I",
    "pIC50": "> 4.00"
  },
  {
    "COMPOUND": "O=C(O)CCCCCCCCCCOc1c(I)cc(C(=O)O)cc1I",
    "pIC50": "> 4.30"
  },
  {
    "COMPOUND": "O=C(c1cc(I)c(O)c(I)c1)c1cc(I)c(OCc2cccc(I)c2)c(I)c1",
    "pIC50": "> 5.00"
  },
  {
    "COMPOUND": "O=C(O)c1cc(I)c(OCc2ccc(I)cc2)c(I)c1",
    "pIC50": "> 5.00"
  }
]
